So I've got a bunch of binders here, and I need their Kd values.
# target.system: T1, PUF4 RNA-binding domain (Saccharomyces cerevisiae, UniProt P25339 537-888)
# T1 sequence: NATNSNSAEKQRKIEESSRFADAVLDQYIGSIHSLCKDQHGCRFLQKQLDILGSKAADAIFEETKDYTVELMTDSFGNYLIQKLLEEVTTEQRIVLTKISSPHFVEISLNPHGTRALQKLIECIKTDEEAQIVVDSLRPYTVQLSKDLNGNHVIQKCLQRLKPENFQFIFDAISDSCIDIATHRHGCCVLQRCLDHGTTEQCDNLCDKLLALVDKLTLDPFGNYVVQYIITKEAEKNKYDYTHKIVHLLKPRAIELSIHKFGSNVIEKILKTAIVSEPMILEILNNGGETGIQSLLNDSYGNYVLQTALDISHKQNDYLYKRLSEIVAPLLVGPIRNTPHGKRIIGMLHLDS
# protocol.notes: Mg; RNA-MaP; 20 mM Na-HEPES pH 7.4, 30 mM KOAc, 0.75 mM MgCl2, 0.1% Tween-20, 5% glycerol, 0.1 mg/mL BSA, 2 mM DTT; 25 C; 0.0125-409.6 nM protein
# measurement.parameters: tags: N-His6-TEV cleaved; C-SNAP kept, Cy3B-labelled; label: tethered on chip by stalled RNA polymerase
Give the value in nM but do not write nM after it.

So for UCUCUUGUACACUUAUUAAAUCUCUU (ssRNA) [Id_ii_S1_P5E.4_K5.3_C5.2_[C-2G]_H5.3_A5.1_F5.1_T5.2_[T11A]] , the logged Kd turned out to be 3.63

Consider Ic_S2_P3E.1_K3.1_C3.1_H3.1_A3.1_[T5C]_F3.1_[T7G]_[A8C]_T3.1 (ssRNA) RNA: UUUGAUUAAUAUGAUAUCGUUCUUUCUUGUACAGCUUCUUUCUCGAUAUCAUAUUAAUCUUU . Its measured Kd is 35.4

Data point: Ie_S2_P4E.1_K4.1_C4.1_H4.1_[+2TTCC]_A4.1_F4.1_T4.1 (ssRNA) RNA: UUUGAUUAAUAUGAUAUCGUUCUUUCUUGUUCCUAUAUUAUUCUUUCUCGAUAUCAUAUUAAUCUUU ; Kd = 17.9

Entry Id_iii_S2_P4E.5_K4.1_C4.3_H4.1_A4.1_F4.1_T4.2_[G10C] (ssRNA) RNA: UUUGAUUAAUAUGAUAUCGUUCUUUCUUCUUGUAUAUUACUUUCUUUCUCGAUAUCAUAUUAAUCUUU ; Kd = 0.519

The binder identified as Id_ii_S2_P4E.4_K4.3_C4.2_[C-2T]_H4.3_A4.1_F4.1_T4.2_[G10A] (ssRNA) RNA: UUUGAUUAAUAUGAUAUCGUUCUUUCUUUACACUAUUAAUUUCUUUCUCGAUAUCAUAUUAAUCUUU registered its Kd at 445

Per the record, UCUCUUCAUGUAUAUUAGGUCUCUU (ssRNA) [Id_ii_S1_P4E.2_K4.1_C4.2_[T-1A]_H4.1_A4.1_F4.1_T4.2_[T11G]] has Kd of 1.02

Briefly, Kd measured for UCUCUUUGUACCUGUUCUCUU (ssRNA) [Ic_S1_P4E.1_K4.1_C4.1_H4.1_A4.1_[T5C]_[A6C]_F4.1_[T8G]_[A9T]_T4.1] : 94

Reported Kd of UCUCUUUCUGUAUAUUAGUUCUCUU (ssRNA) [Id_ii_S1_P4E.2_K4.1_C4.2_[C-2T]_[T-1C]_H4.1_A4.1_F4.1_T4.2] : 0.308

Reported Kd for UCUCUUUGUAACUAGUCUCUU (ssRNA) [Ic_S1_P4E.1_K4.1_C4.1_H4.1_A4.1_[T5A]_[A6C]_F4.1_[T8A]_[A9G]_T4.1] was 104

Lookup result for UCUCUUACUGUAUAUUACUUCUCUU (ssRNA) [Id_ii_S1_P4E.2_K4.1_C4.2_[C-2A]_[T-1C]_H4.1_A4.1_F4.1_T4.2_[G10C]] ; measured Kd: 1.6

Sure, the documented Kd for Id_ii_S2_P5E.2_K5.1_C5.2_[C-2A]_[T-1C]_H5.1_A5.1_F5.1_T5.2_[T11A]_[A12C] (ssRNA) RNA: UUUGAUUAAUAUGAUAUCGUUCUUUCUACUGUAUUAUUAACUUCUUUCUCGAUAUCAUAUUAAUCUUU is 5.62

Lab book: Kd of UCUCUUUGUAUAUAAUUCUCUU (ssRNA) [Ic_S1_P5E.1_K5.1_C5.1_H5.1_A5.1_[T6A]_[A7T]_F5.1_[T8A]_[T9A]_[A10T]_T5.1] noted as 4.21
